measured-target: full-length MALT1 protein His-MALT1(1-824) (Homo sapiens (Human))
experiment-description: MALT1 protease assay, Assay 2 (1 nM MALT1, Ac-LRSR-AMC substrate)
Type: biochemical
experimental-conditions: 1 nM MALT1, 50 μM Ac-LRSR-AMC, 2 h pre-incubation, 8 hr incubation at RT
parameter: IC50

{"compound": "CN1CC(Oc2cc(NC(=O)N3C[C@@](C)(C(F)(F)F)c4c3cnc3cc(Cl)nn43)cc(C(F)F)n2)C1 [compound 130]", "IC50": "100 to 1000 nM"}
{"compound": "CN(C)c1cc(NC(=O)N2C[C@@](C)(C(F)(F)F)c3c2cnc2cc(Cl)nn32)cnn1 [compound 101]", "IC50": "100 to 1000 nM"}
{"compound": "CC(O)c1cnnn1-c1ncc(NC(=O)N2C[C@@](C)(C(F)(F)F)c3c2cnc2cc(F)nn32)cc1C(F)F (stereo partly shown) [compound 188]", "IC50": "10 to 100 nM"}
{"compound": "C[C@H]1COC(=O)N1c1cc(NC(=O)N2C[C@@](C)(C(F)(F)F)c3c2cnc2cc(Cl)nn32)cc(C(F)(F)F)n1 [compound 84]", "IC50": "10 to 100 nM"}
{"compound": "C[C@@]1(C(F)(F)F)CN(C(=O)Nc2cc(C#N)nc(C(F)(F)F)c2)c2cnc3cc(Cl)nn3c21 [compound 61]", "IC50": "10 to 100 nM"}

Requested read-out: IC50. Entry: CC(O)c1cc2ncc3c(n2n1)C(C)(C(F)(F)F)CN3C(=O)Nc1cnc(-n2nccn2)c(Cl)c1 (stereo not shown) [compound 80]
100 to 1000 nM

What about this compound? C[C@@]1(C(F)(F)F)CN(C(=O)Nc2cnc(C(O)C3CC3)c(Cl)c2)c2cnc3cc(Cl)nn3c21 (stereo partly shown) [compound 72]
10 to 100 nM

====

measured-target: full-length MALT1 protein His-MALT1(1-824) (Homo sapiens (Human), UniProt Q9UDY8)
Sequence (Q9UDY8 whole entry): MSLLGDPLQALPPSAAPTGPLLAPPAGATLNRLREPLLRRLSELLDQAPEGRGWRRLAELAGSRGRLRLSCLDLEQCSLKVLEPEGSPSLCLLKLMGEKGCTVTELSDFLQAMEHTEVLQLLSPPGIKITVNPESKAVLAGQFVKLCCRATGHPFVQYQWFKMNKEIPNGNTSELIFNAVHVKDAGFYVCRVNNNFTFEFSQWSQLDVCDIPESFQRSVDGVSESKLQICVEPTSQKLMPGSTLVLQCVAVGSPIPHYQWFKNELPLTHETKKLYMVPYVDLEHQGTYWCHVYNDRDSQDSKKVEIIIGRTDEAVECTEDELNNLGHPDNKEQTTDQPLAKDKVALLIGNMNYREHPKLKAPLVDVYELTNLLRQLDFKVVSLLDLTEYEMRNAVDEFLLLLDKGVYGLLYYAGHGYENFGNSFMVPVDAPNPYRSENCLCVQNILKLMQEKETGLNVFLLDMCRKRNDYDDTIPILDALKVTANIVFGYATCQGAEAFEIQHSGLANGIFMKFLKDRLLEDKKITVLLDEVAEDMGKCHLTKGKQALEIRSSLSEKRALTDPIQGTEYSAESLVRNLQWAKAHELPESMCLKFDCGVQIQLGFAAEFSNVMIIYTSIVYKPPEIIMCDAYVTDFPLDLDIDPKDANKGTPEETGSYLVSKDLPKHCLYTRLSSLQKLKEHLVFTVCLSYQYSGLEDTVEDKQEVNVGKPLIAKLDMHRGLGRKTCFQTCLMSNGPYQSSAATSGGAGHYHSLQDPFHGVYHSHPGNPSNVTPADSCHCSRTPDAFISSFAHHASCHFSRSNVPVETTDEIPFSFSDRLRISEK
experiment-description: MALT1 protease assay, Assay 1 (2 nM MALT1, Ac-LRSR-AMC substrate)
Type: biochemical
experimental-conditions: 2 nM MALT1, 50 μM Ac-LRSR-AMC, 2 h pre-incubation, 8 hr incubation at RT
Attribute: IC50

{"compound": "CC1(C(F)(F)F)CN(C(=O)Nc2cnc(-n3nccn3)c(Cl)c2)c2cnc3cc(C#N)nn3c21 (stereo not shown)", "IC50": "10 to 100 nM"}

Entry under review: C[C@@]1(C(F)(F)F)CN(C(=O)Nc2cnc(N3CCCC3)c(Cl)c2)c2cnc3cc(Cl)nn3c21 . Reported IC50?
10 to 100 nM

Ok, now Cn1cc(-c2ncc(NC(=O)N3C[C@@](C)(C(F)(F)F)c4c3cnc3cc(Cl)nn43)cc2Cl)cn1
10 to 100 nM

Also need COc1nc(-n2nccn2)c(Cl)cc1NC(=O)N1C[C@@](C)(C(F)(F)F)c2c1cnc1cc(Cl)nn21 , thanks.
< 10 nM

====

measured-target: full-length MALT1 protein His-MALT1(1-824) (Homo sapiens (Human))
experiment-description: MALT1 protease assay, Assay 2 (1 nM MALT1, Ac-LRSR-AMC substrate)
Type: biochemical
experimental-conditions: 1 nM MALT1, 50 μM Ac-LRSR-AMC, 2 h pre-incubation, 8 hr incubation at RT
parameter: IC50

// solved cases for IC50 follow
{"given-smiles": "C[C@@]1(C(F)(F)F)CN(C(=O)Nc2ccnc(C(F)(F)F)c2F)c2cnc3cc(Cl)nn3c21", "measured-target": "full-length MALT1 protein His-MALT1(1-824) (Homo sapiens (Human))", "IC50": "100 to 1000 nM"}
{"given-smiles": "Cn1cc(NC(=O)N2C[C@@](C)(C(F)(F)F)c3c2cnc2cc(Cl)nn32)cn1", "measured-target": "full-length MALT1 protein His-MALT1(1-824) (Homo sapiens (Human))", "IC50": "100 to 1000 nM"}
{"given-smiles": "CN(C)C(=O)c1ncc(NC(=O)N2C[C@@](C)(C(F)(F)F)c3c2cnc2cc(Cl)nn32)cc1Cl", "measured-target": "full-length MALT1 protein His-MALT1(1-824) (Homo sapiens (Human))", "IC50": "10 to 100 nM"}

Which value of IC50 has been reported for C[C@@]1(C(F)(F)F)CN(C(=O)Nc2cnc(C#N)c(Cl)c2)c2cnc3cc(Cl)nn3c21 in the records?
10 to 100 nM

====

measured-target: full-length MALT1 protein His-MALT1(1-824) (Homo sapiens (Human))
experiment-description: MALT1 protease assay, Assay 2 (1 nM MALT1, Ac-LRSR-AMC substrate)
Type: biochemical
experimental-conditions: 1 nM MALT1, 50 μM Ac-LRSR-AMC, 2 h pre-incubation, 8 hr incubation at RT
parameter: IC50

Here's what some known entries look like.
{"molecule": "Cc1cn2ccc3c(c2n1)C(C)(C(F)(F)F)CN3C(=O)Nc1cnc(-n2nccn2)c(Cl)c1 (stereo not shown) [compound 193]", "IC50": "10 to 100 nM"}
{"molecule": "CC1(C(F)(F)F)CN(C(=O)Nc2cnc(-n3nccn3)c(Cl)c2)c2cnc3cc(C(F)F)nn3c21 (stereo not shown) [Compound 62]", "IC50": "10 to 100 nM"}
{"molecule": "CC(C)(O)c1cc(NC(=O)N2C[C@@](C)(C(F)(F)F)c3c2cnc2cc(Cl)nn32)cc(C(F)(F)F)n1 [compound 78]", "IC50": "100 to 1000 nM"}
{"molecule": "CC(C)(O)c1cnn(-c2ncc(NC(=O)N3C[C@@](C)(C(F)(F)F)c4c3cnc3cc(Cl)nn43)cc2Cl)n1 [compound 180]", "IC50": "100 to 1000 nM"}
{"molecule": "C[C@@]1(C(F)(F)F)CN(C(=O)Nc2cnc(N3CCOC3=O)c(C(F)F)c2)c2cnc3cc(Cl)nn3c21 [compound 113]", "IC50": "10 to 100 nM"}

In the following, a different molecule is considered.
Under full-length MALT1 protein His-MALT1(1-824) (Homo sapiens (Human)): IC50 value of CN1CC(Oc2cc(NC(=O)N3C[C@@](C)(C(F)(F)F)c4c3cnc3cc(Cl)nn43)cn(C(F)F)c2=O)C1 [compound 110] ?
100 to 1000 nM

====

The reader will find reported IC50 values listed item by item below.
measured-target: full-length MALT1 protein His-MALT1(1-824) (Homo sapiens (Human), UniProt Q9UDY8)
experiment-description: MALT1 protease assay, Assay 1 (2 nM MALT1, Ac-LRSR-AMC substrate)
Assay type: biochemical
experimental-conditions: 2 nM MALT1, 50 μM Ac-LRSR-AMC, 2 h pre-incubation, 8 hr incubation at RT

Record request: IC50 value, item C[C@@]1(C(F)(F)F)CN(C(=O)Nc2cnc(CO)c(Cl)c2)c2cnc3cc(Cl)nn3c21
10 to 100 nM

Then Cc1cc(NC(=O)N2C[C@@](C)(C(F)(F)F)c3c2cnc2cc(Cl)nn32)cnc1-n1ccnn1 ?
10 to 100 nM

Please answer likewise for C[C@@]1(C(F)(F)F)CN(C(=O)NC2CCC(F)(F)CC2)c2cnc3cc(Cl)nn3c21
100 to 1000 nM

What do you get for C[C@@]1(C(F)(F)F)CN(C(=O)Nc2cc(Cl)c(=O)n(C(F)F)c2)c2cnc3cc(Cl)nn3c21 ?
10 to 100 nM

Also check Cn1cnc(-c2ncc(NC(=O)N3C[C@@](C)(C(F)(F)F)c4c3cnc3cc(Cl)nn43)cc2Cl)c1
10 to 100 nM

Continue with C[C@@]1(C(F)(F)F)CN(C(=O)Nc2cnc(-n3cc(C#N)cn3)c(Cl)c2)c2cnc3cc(Cl)nn3c21
10 to 100 nM

====

measured-target: full-length MALT1 protein His-MALT1(1-824) (Homo sapiens (Human))
experiment-description: MALT1 protease assay, Assay 1 (2 nM MALT1, Ac-LRSR-AMC substrate)
Format: biochemical
experimental-conditions: 2 nM MALT1, 50 μM Ac-LRSR-AMC, 2 h pre-incubation, 8 hr incubation at RT
parameter: IC50

Here's what some known entries look like.
{"given-smiles": "Cc1cc2ncc3c(n2n1)C(C)(C)CCN3C(=O)Nc1cnc(-n2nccn2)c(Cl)c1", "IC50": "10 to 100 nM"}
{"given-smiles": "C[C@@]1(C(F)(F)F)CN(C(=O)Nc2cnc(C#N)c(Cl)c2)c2cnc3cc(Cl)nn3c21", "IC50": "10 to 100 nM"}
{"given-smiles": "CNc1ncc(NC(=O)N2C[C@@](C)(C(F)(F)F)c3c2cnc2cc(Cl)nn32)cc1Cl", "IC50": "10 to 100 nM"}

// IC50 lookup, key: CC1(C)CCN(C(=O)Nc2cnc(-n3nccn3)c(Cl)c2)c2ccc3cc(Cl)nn3c21
10 to 100 nM
